system: guinea pig lung parenchymal tissue; assay: Immunologically Mediated Contraction of the Parenchymal Strip (IMCPS); parameters: species or system guinea pig (male Hartley strain); conditions: Cavia porcellus, egg albumin induced contraction of sensitized guinea pig lung parenchymal strip, with chlorpheniramine 10.0 μM and indomethacin 100.0 μM, relative to control tissue, read-out: IMCPS % inhib. 100 μM
inhibition at 100 µM for assorted compounds

Answered examples (4):
COC(=O)CCC/C=C\C(C)(C)COCc1ccc(O)cc1 [Example 6] :: 49%
COC(=O)CCC/C=C\C(C)(C)C=Cc1ccc(Cl)cc1 [Example 8c] :: 15%
CC(C)(/C=C\CCCC(=O)O)COCc1ccccc1 [Example 1c] :: 79%
CN(C)C(=O)CCC/C=C\C(C)(C)COCc1ccccc1 [Example 2] :: 19%

Look up inhibition at 100 µM for this compound: CC(C)(C=Cc1ccc(Cl)cc1)/C=C\CCCC(=O)O [Example 9]
76%

Sourced from patent US4564476A
